Reported growth values for a set of molecules
System: LOX IMVI melanoma
Test: NCI-60 one-dose screen, 48 h (100 = growth as untreated, 0 = no growth, -100 = all killed)
Details: 10 µM unless noted
Compounds without any hit were thinned out: in the full panel of roughly 83,000, 20% have a hit.
readoutKind: growth (%)

molecule: O=c1c2ccccc2[nH]n1Cc1ccc2c(c1)OCO2
unitSpec: %
quantitativeReadout: 111
--
molecule: O=C1CCC(c2c(O)cc(O)c3c(=O)c(O)c(-c4ccc(O)c(O)c4)oc23)N1 (stereo unspecified)
unitSpec: %
quantitativeReadout: 96.9
--
molecule: COc1ccc(NC(=O)Nc2ccc(-c3ccc(OC)c(OC)c3)nc2C)cc1
unitSpec: %
quantitativeReadout: 88.8
--
molecule: C=C1C(=O)O[C@H]2[C@H]1CC/C(COC(=O)c1cccc3ccccc13)=C\CC[C@@]1(C)O[C@@H]21
unitSpec: %
quantitativeReadout: -92.2
--
molecule: Cn1cnc([N+](=O)[O-])c1N1c2ccncc2Sc2ccncc21
unitSpec: %
quantitativeReadout: 78.5
--
molecule: CC1CCC(C(C)C)C(NN)C1 (stereo unspecified)
unitSpec: %
quantitativeReadout: 103

* * *

System: A549/ATCC NSCLC
Test: NCI-60 one-dose screen, 48 h (100 = growth as untreated, 0 = no growth, -100 = all killed)
Conditions: 10 µM unless noted
About 83,000 compounds went through this panel and 20% of them were active in at least one assay; those are over-represented in the sample as a whole. The source made the active and inactive calls. The calls were made as follows: active = growth percent below 10; inactive = the rest.

molecule: O=C(NC(=S)Nc1ccc(Cl)cc1)c1ccccc1
growth: 85.1% (inactive)
--
molecule: c1ccc2c(c1)Oc1cccnc1-n1nccc1-2
growth: 99.6% (inactive)
--
molecule: CCn1c(C)nc([N+](=O)[O-])c1Sc1nc(N)nc2nc[nH]c12
growth: 53.9% (inactive)
--
molecule: Nc1nc(=S)ss1
growth: 97.5% (inactive)
--
molecule: O=C1c2ccccc2OC=C(c2ccccc2)N1CCCCN1CCCCC1
growth: 46.8% (inactive)
--
molecule: O=C(c1cc(-c2ccc(Cl)cc2)nc2ccccc12)N1N=C(c2ccccc2)CC1c1cc(-c2ccccc2)nn1-c1ccccc1 (stereo not given)
growth: 80% (inactive)
--
molecule: CN1CCN(CC(O)COc2c(Br)c(Br)c(Br)c3c2OC(C)(C)C3)CC1 (stereo not given)
growth: 63.6% (inactive)
--
molecule: Oc1ccccc1/C=N/c1ccccn1
growth: 104% (inactive)
--
molecule: O=C(NCCNc1nccc(-c2c(-c3cccc(O)c3)nc3sccn23)n1)Nc1cccc(C(F)(F)F)c1
growth: 39.3% (inactive)
--
molecule: C=C1C(=O)O[C@H]2[C@H]1CC/C(C(=O)Nc1ccc(OC)c(C(N)=O)c1O)=C\CC[C@@]1(C)O[C@@H]21
growth: 77.8% (inactive)
--
molecule: COc1ccc(Cl)cc1NC(=O)c1cc2c([nH]1)-c1nc(NC(=O)C(C)(C)C)sc1CC2
growth: 60.6% (inactive)
--
molecule: COc1cc(-c2nc3sc(C)cn3c2/C=C2\C(=O)Nc3ccccc32)c(Br)c(OC)c1OC
growth: 50.3% (inactive)
--
molecule: O=C(Nc1cccc(-n2ccc3c(NC(=O)c4ccccc4)ncnc32)c1)Nc1ccc(Cl)c(C(F)(F)F)c1
growth: 28.3% (inactive)
--
molecule: COc1ccc(-c2cc3ccc(N(C)C)cc3nc2N)c(F)c1
growth: 40.8% (inactive)
--
molecule: O=C(/C=C/c1ccco1)c1cccc(Nc2nc(Nc3ccccc3)nc(Nc3ccccc3)n2)c1
growth: 20.1% (inactive)
--
molecule: COc1ccc2c(c1)nnn1c3ncccc3c(N=O)c21
growth: 6.65% (active)
--
molecule: N#Cc1c2c(c(N)[nH]c1=O)C(=O)NC2(O)c1ccccc1 (stereo not given)
growth: 97.1% (inactive)
--
molecule: Cc1ccc(-c2cc(-c3nnc(SCC(=O)c4ccccc4)o3)c3ccccc3n2)cc1
growth: 91.4% (inactive)
--
molecule: C=C(C)[C@@H]1C/C=C(\COC(=O)[C@H](OC(C)=O)C(NC(=O)c2ccccc2)c2ccccc2)CC[C@H]2O[C@]2(C)CC/C=C(\C)CC1 (stereo not given in full)
growth: 73.1% [5 µM] (inactive)
--
molecule: C=CC(=O)Nc1cccc(Nc2nc(Nc3ccc(OCCOC(F)F)cc3)ncc2F)c1
growth: 30.9% (inactive)
